Record form. Attribute: pEC50. Fill in for each entry.
Target: Oxysterols receptor LXR-alpha (Homo sapiens)
Sequence (Q13133 whole entry): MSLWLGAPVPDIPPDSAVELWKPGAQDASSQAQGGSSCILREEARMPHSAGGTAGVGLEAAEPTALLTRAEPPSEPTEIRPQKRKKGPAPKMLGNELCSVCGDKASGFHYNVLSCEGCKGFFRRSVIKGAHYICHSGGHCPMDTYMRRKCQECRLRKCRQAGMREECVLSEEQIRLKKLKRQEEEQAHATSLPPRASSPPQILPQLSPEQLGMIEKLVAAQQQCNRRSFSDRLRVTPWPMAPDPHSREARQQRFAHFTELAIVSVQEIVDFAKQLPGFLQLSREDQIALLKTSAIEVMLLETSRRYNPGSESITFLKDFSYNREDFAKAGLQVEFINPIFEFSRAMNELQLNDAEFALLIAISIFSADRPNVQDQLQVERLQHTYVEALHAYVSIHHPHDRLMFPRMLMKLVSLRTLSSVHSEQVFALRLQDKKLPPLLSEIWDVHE
Test: Agonist activity at GAL-linked human LXRalpha expressed in THP1 cells assessed as stimulation of coactivator recruitment by FRET assay
Format: functional
Please keep in mind that pEC50 is minus log10 of the molar concentration; only the number is needed.

The value of pEC50 measured for the compound COc1cc(F)ccc1C1SC(c2ccc(F)cc2)=NN1C(=O)c1c(F)cc(F)cc1F (stereo unspecified) turned out to be 7.15

The value of pEC50 measured for the compound O=C(O)Cc1cccc(OCCCN(Cc2cccc(C(F)(F)F)c2Cl)CC(c2ccccc2)c2ccccc2)c1 turned out to be 7.01

The value of pEC50 measured for the compound COc1cccc(C2SC(c3ccc(C)cc3)=NN2C(=O)c2c(F)cc(F)cc2F)c1OC (stereo unspecified) turned out to be 5.85

The value of pEC50 measured for the compound COc1cccc(C2SC(c3ccc(F)cc3)=NN2C(=O)c2cc(F)ccc2C)c1OC (stereo unspecified) turned out to be 5.62

The value of pEC50 measured for the compound COc1cc(F)c(C(=O)N2N=C(c3ccc(F)cc3)SC2c2cccc(OC)c2OC)c(F)c1 (stereo unspecified) turned out to be 6.05

The value of pEC50 measured for the compound COc1cccc(C2SC(c3ccc(F)cc3)=NN2C(=O)c2cc(F)cc(F)c2)c1OC (stereo unspecified) turned out to be 5.68
